Biological target: NLRP3 (Homo sapiens)
Sequence (Q96P20 whole entry): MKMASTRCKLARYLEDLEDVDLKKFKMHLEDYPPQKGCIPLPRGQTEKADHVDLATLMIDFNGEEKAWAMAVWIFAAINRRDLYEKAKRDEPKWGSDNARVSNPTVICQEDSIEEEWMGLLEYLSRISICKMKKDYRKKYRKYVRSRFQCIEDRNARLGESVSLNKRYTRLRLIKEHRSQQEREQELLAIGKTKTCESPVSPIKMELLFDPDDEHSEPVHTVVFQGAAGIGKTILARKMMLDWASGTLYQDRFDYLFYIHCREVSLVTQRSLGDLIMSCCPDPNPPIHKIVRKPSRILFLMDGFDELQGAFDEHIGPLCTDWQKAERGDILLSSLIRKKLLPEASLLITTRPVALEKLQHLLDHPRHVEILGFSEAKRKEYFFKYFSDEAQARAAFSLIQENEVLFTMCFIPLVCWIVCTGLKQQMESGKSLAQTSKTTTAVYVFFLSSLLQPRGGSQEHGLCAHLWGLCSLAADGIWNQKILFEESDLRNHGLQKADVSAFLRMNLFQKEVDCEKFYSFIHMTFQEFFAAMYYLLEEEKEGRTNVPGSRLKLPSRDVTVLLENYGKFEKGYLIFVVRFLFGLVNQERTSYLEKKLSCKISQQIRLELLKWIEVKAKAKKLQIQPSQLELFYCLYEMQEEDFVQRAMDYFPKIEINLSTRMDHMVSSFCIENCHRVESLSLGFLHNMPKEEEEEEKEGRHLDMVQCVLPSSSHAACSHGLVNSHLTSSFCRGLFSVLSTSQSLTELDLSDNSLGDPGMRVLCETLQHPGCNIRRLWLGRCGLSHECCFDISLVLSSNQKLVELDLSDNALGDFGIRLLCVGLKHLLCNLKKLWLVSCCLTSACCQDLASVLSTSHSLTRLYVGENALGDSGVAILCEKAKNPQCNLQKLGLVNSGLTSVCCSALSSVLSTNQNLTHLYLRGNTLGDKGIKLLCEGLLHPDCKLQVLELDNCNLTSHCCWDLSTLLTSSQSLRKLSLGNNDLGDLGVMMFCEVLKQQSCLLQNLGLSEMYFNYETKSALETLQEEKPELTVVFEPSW
Assay: Measurement of IL-1β production in PMA-differentiated THP-1 cells (NLRP3 hIL1B)
property: pEC50
Conceptually, pEC50 converts a concentration in mol/L into minus its log10.

Exercise: Please list pEC50 recorded for the compound CCn1cc(CNc2nc(N)nc3cc(-c4ccn[nH]4)ccc23)nn1
Key: 5.31

Exercise: Please report pEC50 for the following compound: Nc1nc(N[C@H]2COC[C@@H](O)C2)c2ccc(-c3ccn[nH]3)cc2n1 (single isomer, unassigned) [Example 13]
Key: 5.93

Exercise: Tell me pEC50 reported for Nc1nc(NCCn2cncn2)c2ccc(-c3ccn[nH]3)cc2n1
Key: 6.10

Exercise: Consider the compound Nc1nc(NCC2(O)CCC2)c2ccc(-c3ccn[nH]3)cc2n1 . State its measured pEC50.
Key: 6.49

Exercise: Could you please provide reported pEC50 for Nc1nc(N[C@H](CO)Cc2c[nH]cn2)c2ccc(-c3ccn[nH]3)cc2n1 ? Thanks!
Key: 5.40
